# System: Leukemia (SR)
# ASSAY INFO: NCI single dose SRB screen, SR
# Format: cell-based
# MEASUREMENT CONTEXT: 48 h, 10^−5 M single dose, read-out: GI% Leukemia (SR)
VALUE TYPE: inhibition at 10 µM

{"columns": ["COMPOUND", "TARGET UNDER TEST", "inhibition at 10 µM"],
 "data": [
  ["CC1(C)N=C(N)N=C(N)N1c1ccc(S(=O)(=O)Nc2nccs2)cc1", "Leukemia (SR)", "≤ 10%"],
  ["CC1CCC2(CC1)N=C(N)N=C(N)N2c1ccc(S(=O)(=O)Nc2ccccn2)cc1 (stereo not drawn)", "Leukemia (SR)", "≤ 10%"],
  ["NC1=NC2(CCCC2)NC(Nc2ccc(S(N)(=O)=O)cc2)=N1", "Leukemia (SR)", "≤ 10%"],
  ["Cc1ccc(/C=C(\\C#N)c2nc(N)nc(Nc3ccc(S(N)(=O)=O)cc3)n2)cc1 [Compound 12g]", "Leukemia (SR)", "≤ 10%"],
  ["N#C/C(=C\\c1cccc(Cl)c1)c1nc(N)nc(Nc2ccc(S(N)(=O)=O)cc2)n1 [Compound 12h]", "Leukemia (SR)", "27%"],
  ["NC1=NC2(CCCCC2)NC(Nc2ccc(S(N)(=O)=O)cc2)=N1", "Leukemia (SR)", "15%"],
  ["NC1=NC2(CCCC2)N(c2ccc(S(=O)(=O)Nc3nccs3)cc2)C(N)=N1", "Leukemia (SR)", "≤ 10%"],
  ["N#CCc1nc(N)nc(Nc2ccc(S(N)(=O)=O)cc2)n1", "Leukemia (SR)", "≤ 10%"]
]}

We next turn to a different compound, shown below.
Give the reported inhibition at 10 µM for N#C/C(=C\c1cccc(F)c1)c1nc(N)nc(Nc2ccc(S(N)(=O)=O)cc2)n1 [Compound 12i] (system: Leukemia (SR)).
≤ 10%

---

# TARGET UNDER TEST: hCA XII (Homo sapiens, UniProt O43570)
# Construct: made in house
# Sequence (O43570 25-354): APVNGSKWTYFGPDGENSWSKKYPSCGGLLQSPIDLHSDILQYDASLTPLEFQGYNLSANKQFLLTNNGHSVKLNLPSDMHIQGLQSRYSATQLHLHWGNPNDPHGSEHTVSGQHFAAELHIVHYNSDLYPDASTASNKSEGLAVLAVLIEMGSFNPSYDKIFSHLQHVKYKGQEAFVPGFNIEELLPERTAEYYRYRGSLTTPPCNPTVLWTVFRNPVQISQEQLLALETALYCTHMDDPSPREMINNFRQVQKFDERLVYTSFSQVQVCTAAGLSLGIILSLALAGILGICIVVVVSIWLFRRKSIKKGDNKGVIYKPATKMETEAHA
# ASSAY INFO: stopped-flow CO2 hydrase assay, hCA XII
# Type: biochemical
# MEASUREMENT CONTEXT: hCA XII over off-target hCA II
VALUE TYPE: Selectivity index (SI) II/XII
Note: the reply should be a number with no unit written.

{"columns": ["MOLECULE", "TARGET UNDER TEST", "NUMERIC READOUT"],
 "data": [
  ["CC1CCC2(CC1)N=C(N)N=C(Nc1ccc(S(N)(=O)=O)cc1)N2 (stereo not drawn)", "hCA XII (Homo sapiens, UniProt O43570)", 0.6],
  ["N#C/C(=C\\c1ccccc1)c1nc(N)nc(Nc2ccc(S(N)(=O)=O)cc2)n1 [Compound 12a]", "hCA XII (Homo sapiens, UniProt O43570)", 0.05],
  ["N#C/C(=C\\c1ccc(F)cc1)c1nc(N)nc(Nc2ccc(S(N)(=O)=O)cc2)n1 [Compound 12f.]", "hCA XII (Homo sapiens, UniProt O43570)", 0.1],
  ["CN(C)c1ccc(/C=C(\\C#N)c2nc(N)nc(Nc3ccc(S(N)(=O)=O)cc3)n2)cc1 [Compound 12d]", "hCA XII (Homo sapiens, UniProt O43570)", 2],
  ["NC1=NC2(CCCCC2)N(c2ccc(S(N)(=O)=O)cc2)C(N)=N1", "hCA XII (Homo sapiens, UniProt O43570)", 0.2],
  ["NC1=NC2(CCCC2)N(c2ccc(S(N)(=O)=O)cc2)C(N)=N1", "hCA XII (Homo sapiens, UniProt O43570)", 0.2],
  ["N#CCc1nc(N)nc(Nc2ccc(S(N)(=O)=O)cc2)n1", "hCA XII (Homo sapiens, UniProt O43570)", 0.006],
  ["CC1(C)N=C(N)N=C(Nc2ccc(S(N)(=O)=O)cc2)N1", "hCA XII (Homo sapiens, UniProt O43570)", 0.1]
]}

We next turn to a different molecule, shown below.
Give the reported Selectivity index (SI) II/XII for N#C/C(=C\c1cccc(Cl)c1)c1nc(N)nc(Nc2ccc(S(N)(=O)=O)cc2)n1 [Compound 12h] (system: hCA XII (Homo sapiens, UniProt O43570)).
3.6

---

# TARGET UNDER TEST: hCA XII (Homo sapiens, UniProt O43570)
# Construct: made in house
# ASSAY INFO: stopped-flow CO2 hydrase assay, hCA XII
# Assay type: biochemical
# MEASUREMENT CONTEXT: hCA XII over off-target hCA II
# Protocol: Target compounds of series (A) and (B) were screened as inhibitors concerning the physiologically relevant hCAs; cytosolic isoforms (hCA I and II) in addition to the transmembrane tumor related isoforms (hCA IX and XII) via a stopped-flow assay of carbonic anhydrase catalyzed CO2 hydration. […] Four CA isoforms inhibition activity was measured by assaying CA catalyzed CO2 hydration via an applied photophysics stopped-flow instrument. […]
VALUE TYPE: Selectivity index (SI) II/XII
Note: the reply should be a number with no unit written.

{"columns": ["MOLECULE", "NUMERIC READOUT"],
 "data": [
  ["N#C/C(=C\\c1cccc(Br)c1)c1nc(N)nc(Nc2ccc(S(N)(=O)=O)cc2)n1 [Compound 12b]", 0.2],
  ["N#C/C(=C\\c1ccc2c(c1)OCO2)c1nc(N)nc(Nc2ccc(S(N)(=O)=O)cc2)n1 [Compound 12e]", 0.1],
  ["CC1CCC2(CC1)N=C(N)N=C(N)N2c1ccc(S(N)(=O)=O)cc1 (centres unmarked)", 0.04]
]}

We next turn to a different molecule, shown below.
Give the reported Selectivity index (SI) II/XII for NC1=NC2(CCCCC2)NC(Nc2ccc(S(N)(=O)=O)cc2)=N1 (system: hCA XII (Homo sapiens, UniProt O43570)).
0.6

---

# TARGET UNDER TEST: hCA XII (Homo sapiens, UniProt O43570)
Rule: Ki below 5 µM gives Condition met, anything at or above gives Condition not met.

Reference set (3 entries):
{"columns": ["COMPOUND", "TARGET UNDER TEST", "GROUP LABEL"],
 "data": [
  ["N#C/C(=C\\c1ccc(F)cc1)c1nc(N)nc(Nc2ccc(S(N)(=O)=O)cc2)n1 [Compound 12f.]", "hCA XII (Homo sapiens, UniProt O43570)", "Condition met"],
  ["CN(C)c1ccc(/C=C(\\C#N)c2nc(N)nc(Nc3ccc(S(N)(=O)=O)cc3)n2)cc1 [Compound 12d]", "hCA XII (Homo sapiens, UniProt O43570)", "Condition met"],
  ["N#C/C(=C\\c1cccc(Cl)c1)c1nc(N)nc(Nc2ccc(S(N)(=O)=O)cc2)n1 [Compound 12h]", "hCA XII (Homo sapiens, UniProt O43570)", "Condition met"]
]}

In the record for N#C/C(=C\c1ccccc1)c1nc(N)nc(Nc2ccc(S(N)(=O)=O)cc2)n1 [Compound 12a] , is Ki less than 5 µM?
Condition not met

Item: NC1=NC2(CCCCC2)N(c2ccc(S(N)(=O)=O)cc2)C(N)=N1
Condition met

Item: CC1CCC2(CC1)N=C(N)N=C(Nc1ccc(S(N)(=O)=O)cc1)N2 (stereo not drawn)
Condition met

Item: Cc1ccc(/C=C(\C#N)c2nc(N)nc(Nc3ccc(S(N)(=O)=O)cc3)n2)cc1 [Compound 12g]
Condition met

Item: NC1=NC2(CCCCCC2)N(c2ccc(S(=O)(=O)Nc3ccccn3)cc2)C(N)=N1
Condition not met

Item: N#C/C(=C\c1ccc2c(c1)OCO2)c1nc(N)nc(Nc2ccc(S(N)(=O)=O)cc2)n1 [Compound 12e]
Condition not met

Item: N#C/C(=C\c1cccc(Br)c1)c1nc(N)nc(Nc2ccc(S(N)(=O)=O)cc2)n1 [Compound 12b]
Condition not met

Item: N#C/C(=C\c1cccc(F)c1)c1nc(N)nc(Nc2ccc(S(N)(=O)=O)cc2)n1 [Compound 12i]
Condition met

Item: NC1=NC2(CCCCC2)N(c2ccc(S(=O)(=O)Nc3nccs3)cc2)C(N)=N1
Condition not met

Item: CC1CCC2(CC1)N=C(N)N=C(N)N2c1ccc(S(=O)(=O)Nc2ccccn2)cc1 (stereo not drawn)
Condition not met

Item: COc1ccc(/C=C(\C#N)c2nc(N)nc(Nc3ccc(S(N)(=O)=O)cc3)n2)cc1 [Compound 12c]
Condition not met

---

Measured melting point accompanies every entry in the list below.
Counter-ions that a name gives are not always drawn.

Consider the following illustrative entries.
{"columns": ["COMPOUND", "melting point"],
 "data": [
  ["N#C/C(=C\\c1cccc(Br)c1)c1nc(N)nc(Nc2ccc(S(N)(=O)=O)cc2)n1 [Compound 12b]", "234 to 236 °C"],
  ["CC1(C)N=C(N)N=C(N)N1c1ccc(S(=O)(=O)Nc2ccccn2)cc1.Cl", "209 to 211 °C"]
]}

Given the compound NC1=NC2(CCCC2)N(c2ccc(S(=O)(=O)Nc3nccs3)cc2)C(N)=N1 (as salt: HCl) , what is its reported melting point?
216 to 218 °C

Item: NC1=NC2(CCCCC2)N(c2ccc(S(=O)(=O)Nc3nccs3)cc2)C(N)=N1 (as salt: HCl)
245 to 247 °C
